# target.system: Estrogen receptor (Homo sapiens)
# method.summary: CCTE_Deisenroth_AIME_384WELL_LUC_Shift: CCTE's 384-well Estrogen Receptor Transactivation Assay with AIME metabolic competence data shift (ERTA luciferase; difference in metabolism positive and negative), Deisenroth Lab (AID 2284041);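 further: shift is response with S9 minus without S9 so positive means metabolism raised ER signal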
# Description: CCTE_Deisenroth_AIME_384WELL (AIME metabolism assay) is a cell-based, single-readout assay that uses VM7Luc4E2, a human mammary gland/breast cell line, with measurements taken at 24 hour after chemical dosing in a 384-well plate.CCTE_Deisenroth_AIME_384WELL_LUC_Shift is one of two analysis components calculated from the CCTE_Deisenroth_AIME_384WELL assay. […] Standard curve fit analysis identfiied chemicals where the calculated shift was greater than the shift-derived baseline cutoff. […]
Activity calls are given as the source filed them. How the source made its calls: active means hit-call score of the fitted dose curve at least 0.9, where 1 is the maximum; inactive means score below 0.9.
Outcomes you can answer with include only these: true (active), false (inactive)

{"compound": "O=C(O)c1cc(O)c2ccccc2c1O", "assigned.category": "false"}
{"compound": "CCCC(CC)c1ccccc1 (configuration not stated)", "assigned.category": "false"}

**Q:** Please state the recorded outcome for this compound: CO[Si](C)(C)OC
**A:** false

**Q:** Please state the recorded outcome for this compound: O=C(O)C1CCC(C(=O)O)CC1 (configuration not stated)
**A:** false

**Q:** Please state the recorded outcome for this compound: CC(C)=CCCC(C)=CC#N
**A:** false

**Q:** Please state the recorded outcome for this compound: CC(=O)OCc1ccccc1
**A:** false

**Q:** Please state the recorded outcome for this compound: O=C(Oc1ccccc1)c1ccccc1O
**A:** true

**Q:** Please state the recorded outcome for this compound: CCCCCCCCCC(C)=O
**A:** false

**Q:** Please state the recorded outcome for this compound: CC(C)(C)N
**A:** false

**Q:** Please state the recorded outcome for this compound: CC1=NN(c2ccc(S(=O)(=O)O)cc2)C(=O)C1N=Nc1ccccc1 (configuration not stated)
**A:** false

**Q:** Please state the recorded outcome for this compound: CCCCCCCCC(CO)CCCCCC (configuration not stated)
**A:** false

**Q:** Please state the recorded outcome for this compound: CC(=O)/C=C/C1C(C)=CCCC1(C)C (configuration not stated)
**A:** false

**Q:** Please state the recorded outcome for this compound: CC(C)(C)NC(=O)[C@H]1CC[C@H]2[C@@H]3CC[C@H]4NC(=O)C=C[C@]4(C)[C@H]3CC[C@]12C
**A:** false

**Q:** Please state the recorded outcome for this compound: O=C(O)CC(C(=O)O)S(=O)(=O)O (configuration not stated)
**A:** false

**Q:** Please state the recorded outcome for this compound: C=CCOC(=O)c1ccc(C(=O)OCC=C)c(C(=O)OCC=C)c1
**A:** false

**Q:** Please state the recorded outcome for this compound: COC(=O)c1ccccc1C
**A:** false

**Q:** Please state the recorded outcome for this compound: CCCCCCOc1ccc(N)cc1
**A:** true

* * *

# target.system: D(1A) dopamine receptor (Homo sapiens) (UniProt P21728)
# Sequence (P21728 whole entry, looked up): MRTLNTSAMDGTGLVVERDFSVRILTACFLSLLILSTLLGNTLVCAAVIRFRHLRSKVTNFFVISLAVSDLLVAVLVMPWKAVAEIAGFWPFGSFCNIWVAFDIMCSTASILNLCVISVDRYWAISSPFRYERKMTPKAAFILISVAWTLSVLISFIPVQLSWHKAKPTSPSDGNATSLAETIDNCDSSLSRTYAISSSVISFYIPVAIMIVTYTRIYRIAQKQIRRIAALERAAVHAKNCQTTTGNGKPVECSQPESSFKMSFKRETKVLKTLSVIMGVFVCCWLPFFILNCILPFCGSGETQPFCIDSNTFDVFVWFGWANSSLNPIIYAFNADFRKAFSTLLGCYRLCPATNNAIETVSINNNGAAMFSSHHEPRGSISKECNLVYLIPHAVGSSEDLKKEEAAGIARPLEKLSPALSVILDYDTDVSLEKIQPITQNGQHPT
# method.summary: NVS_GPCR_hDRD1: NovaScreen (NVS) G Protein-Coupled Receptor Assay for human Dopamine Receptor D1 (DRD1) (AID 2283269)
Results filed as inconclusive are left out. Active and inactive are the calls of the source. Rule for the calls: active = hit-call score of the fitted dose curve at least 0.9, where 1 is the maximum; inconclusive = response in the unintended direction; inactive = score below 0.9.
Outcomes you can answer with include only these: class 1 (active), class 0 (inactive)

Sample answers from the record:
{"molecule": "C=C(C)C(=O)OCCCCCCCCCCCC", "assigned.category": "class 0"}
{"molecule": "CCCCCCCCCCCCCc1ccccc1", "assigned.category": "class 0"}
{"molecule": "Oc1ccc(/C=C/c2cc(O)cc(O)c2)cc1", "assigned.category": "class 1"}
{"molecule": "CCC(C)C(=O)OC (centres undefined)", "assigned.category": "class 1"}

**Q:** Please state the recorded outcome for this molecule: [Cl][Sc]([Cl])[Cl]
**A:** class 0

**Q:** Please state the recorded outcome for this molecule: CC(c1cc(C(C)(C)C)cc(C(C)(C)C)c1O)c1cc(C(C)(C)C)cc(C(C)(C)C)c1O
**A:** class 0

**Q:** Please state the recorded outcome for this molecule: Cc1cc(C)n(CO)n1
**A:** class 0

**Q:** Please state the recorded outcome for this molecule: Cc1cc(C)c(C=O)c(C)c1
**A:** class 0

**Q:** Please state the recorded outcome for this molecule: CC(C)CCOCc1ccccc1
**A:** class 0

* * *

# target.system: chimpanzee Androgen Receptor (AR), AR (gene 747460) (UniProt O97775)
# Sequence (O97775 whole entry, looked up): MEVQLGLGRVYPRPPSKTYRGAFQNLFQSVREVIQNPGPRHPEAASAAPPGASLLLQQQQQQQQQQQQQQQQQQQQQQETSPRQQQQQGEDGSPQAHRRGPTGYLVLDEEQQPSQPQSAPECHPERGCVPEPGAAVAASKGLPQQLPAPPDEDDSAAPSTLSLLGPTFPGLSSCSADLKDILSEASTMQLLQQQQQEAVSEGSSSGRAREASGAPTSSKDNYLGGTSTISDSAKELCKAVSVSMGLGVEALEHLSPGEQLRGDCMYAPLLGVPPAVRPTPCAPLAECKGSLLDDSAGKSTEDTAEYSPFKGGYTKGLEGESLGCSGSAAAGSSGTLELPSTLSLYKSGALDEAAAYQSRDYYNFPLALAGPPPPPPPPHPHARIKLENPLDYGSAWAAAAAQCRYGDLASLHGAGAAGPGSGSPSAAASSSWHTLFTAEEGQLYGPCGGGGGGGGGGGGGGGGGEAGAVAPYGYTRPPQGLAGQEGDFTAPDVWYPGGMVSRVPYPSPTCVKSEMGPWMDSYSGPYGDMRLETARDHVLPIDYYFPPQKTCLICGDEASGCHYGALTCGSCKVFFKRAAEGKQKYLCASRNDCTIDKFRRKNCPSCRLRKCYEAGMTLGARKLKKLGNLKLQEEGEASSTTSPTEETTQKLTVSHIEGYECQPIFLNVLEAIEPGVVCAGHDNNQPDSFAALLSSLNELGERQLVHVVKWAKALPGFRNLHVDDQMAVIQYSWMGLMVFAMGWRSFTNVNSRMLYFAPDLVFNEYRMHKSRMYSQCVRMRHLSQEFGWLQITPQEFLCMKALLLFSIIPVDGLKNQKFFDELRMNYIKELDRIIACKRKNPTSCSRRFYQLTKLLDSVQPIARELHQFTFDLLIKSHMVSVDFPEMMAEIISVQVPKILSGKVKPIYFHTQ
# method.summary: NVS_NR_cAR: NovaScreen (NVS) Nuclear Receptor Binding Assay for chimpanzee Androgen Receptor (AR) (AID 2283346);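 further: radioligand displacement from AR measured by scintillation counting in a cell-free assay; a loss of bound radioligand signal versus DMSO counts as binding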
Records with an inconclusive call do not appear. Activity calls are given as the source filed them. Rule for the calls: active = hit-call score of the fitted dose curve at least 0.9, where 1 is the maximum; inconclusive = response in the unintended direction; inactive = score below 0.9.
Outcomes you can answer with include only these: active, inactive

Sample answers from the record:
{"compound": "CC(C)c1cc(C(C)C)cc(C(C)C)c1", "target.system": "chimpanzee Androgen Receptor (AR), AR (gene 747460) (UniProt O97775)", "assigned.category": "inactive"}
{"compound": "O=C(OCc1ccccc1)c1ccc(O)cc1", "target.system": "chimpanzee Androgen Receptor (AR), AR (gene 747460) (UniProt O97775)", "assigned.category": "active"}
{"compound": "CCCCC/C=C\\C/C=C\\CCCCCCCC(=O)O", "target.system": "chimpanzee Androgen Receptor (AR), AR (gene 747460) (UniProt O97775)", "assigned.category": "active"}
{"compound": "Oc1ccc(-c2ccccc2)c(Cl)c1", "target.system": "chimpanzee Androgen Receptor (AR), AR (gene 747460) (UniProt O97775)", "assigned.category": "active"}
{"compound": "CCCCCC[C@@H](O)C/C=C\\CCCCCCCC(=O)OCC(O)CO (some centres undefined)", "target.system": "chimpanzee Androgen Receptor (AR), AR (gene 747460) (UniProt O97775)", "assigned.category": "inactive"}

**Q:** Please state the recorded outcome for this compound: CC1(C)CC(O)CC(C)(C)N1[O]
**A:** inactive

**Q:** Please state the recorded outcome for this compound: CCN1CN(CC)CN(CC)C1
**A:** inactive

**Q:** Please state the recorded outcome for this compound: C=CC(=O)OCC(C)OCC(C)OCC(C)OC(=O)C=C (centres undefined)
**A:** active

**Q:** Please state the recorded outcome for this compound: N#Cc1ccc(C(c2ccc(C#N)cc2)n2cncn2)cc1
**A:** active

* * *

# Read-out: Monokine induced gamma interferon (MIG), CXCL9 (gene 4283)
# method.summary: BSK_CASM3C_MIG: BioMAP Diversity Plus: CASM3C Assay for Monokine induced gamma interferon (MIG) Biomarker Activity (AID 2283048);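 further: MIG protein level measured by ELISA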
# experimental.setup: primary human coronary artery smooth muscle cells; actives raise or lower the signal
Activity calls are given as the source filed them. Rule for the calls: active = hit-call score of the fitted dose curve at least 0.9, where 1 is the maximum; inactive = score below 0.9.
Outcomes you can answer with include only these: 1 (yes) = active, 0 (no) = inactive

Sample answers from the record:
{"compound": "C=CC(=O)NCOCCCC", "assigned.category": "0 (no)"}
{"compound": "Clc1cc(Cl)c(Cl)c(Cl)c1Cl", "assigned.category": "0 (no)"}
{"compound": "CC=C(C)C(C)=O", "assigned.category": "0 (no)"}
{"compound": "O=C(Cl)c1c(Cl)c(Cl)c(C(=O)Cl)c(Cl)c1Cl", "assigned.category": "0 (no)"}
{"compound": "CCCCCCCCCCCC(C)=O", "assigned.category": "0 (no)"}
{"compound": "CC(c1cc(C(C)(C)C)cc(C(C)(C)C)c1O)c1cc(C(C)(C)C)cc(C(C)(C)C)c1O", "assigned.category": "0 (no)"}
{"compound": "O=C1CCCCCCCCCCCN1", "assigned.category": "0 (no)"}
{"compound": "C=CC(=O)OCCCCCCCC(C)C", "assigned.category": "0 (no)"}
{"compound": "CCCCCCC=O", "assigned.category": "0 (no)"}
{"compound": "C=CCCCCCCCCC=O", "assigned.category": "0 (no)"}

**Q:** Please state the recorded outcome for this compound: CC=C(C)C=CC=C(C)C
**A:** 0 (no)

**Q:** Please state the recorded outcome for this compound: C=CC(=O)OCCCCCCOC(=O)C=C
**A:** 1 (yes)

**Q:** Please state the recorded outcome for this compound: CC(Cl)COP(=O)(OCC(C)Cl)OCC(C)Cl (stereo not drawn)
**A:** 0 (no)

**Q:** Please state the recorded outcome for this compound: CC/C=C\C/C=C\C/C=C\CCCCCCCC(=O)OC
**A:** 1 (yes)

**Q:** Please state the recorded outcome for this compound: CCCCCCCO
**A:** 0 (no)

**Q:** Please state the recorded outcome for this compound: CCCCC1C(=O)N(c2ccccc2)N(c2ccccc2)C1=O
**A:** 0 (no)

**Q:** Please state the recorded outcome for this compound: CC(C)CCCCCOC(=O)CS
**A:** 0 (no)

**Q:** Please state the recorded outcome for this compound: CC(C)[N+](C)(CCOC(=O)C1c2ccccc2Oc2ccccc21)C(C)C
**A:** 0 (no)

**Q:** Please state the recorded outcome for this compound: CCCCCCOC(=O)CCCCC(=O)OCCCCCC
**A:** 0 (no)

**Q:** Please state the recorded outcome for this compound: CC(CCC(=O)O)(c1ccc(O)cc1)c1ccc(O)cc1
**A:** 0 (no)

**Q:** Please state the recorded outcome for this compound: Cc1ccc([N+](=O)[O-])cc1N
**A:** 0 (no)

**Q:** Please state the recorded outcome for this compound: Nc1ccc(C(=O)O)cc1
**A:** 0 (no)

**Q:** Please state the recorded outcome for this compound: Fc1ccc(Br)cc1
**A:** 0 (no)
